experimental system: recombinant human integrin αVβ6 (Homo sapiens (Human), UniProt P06756+P18564)
Sequence (P06756 31-992): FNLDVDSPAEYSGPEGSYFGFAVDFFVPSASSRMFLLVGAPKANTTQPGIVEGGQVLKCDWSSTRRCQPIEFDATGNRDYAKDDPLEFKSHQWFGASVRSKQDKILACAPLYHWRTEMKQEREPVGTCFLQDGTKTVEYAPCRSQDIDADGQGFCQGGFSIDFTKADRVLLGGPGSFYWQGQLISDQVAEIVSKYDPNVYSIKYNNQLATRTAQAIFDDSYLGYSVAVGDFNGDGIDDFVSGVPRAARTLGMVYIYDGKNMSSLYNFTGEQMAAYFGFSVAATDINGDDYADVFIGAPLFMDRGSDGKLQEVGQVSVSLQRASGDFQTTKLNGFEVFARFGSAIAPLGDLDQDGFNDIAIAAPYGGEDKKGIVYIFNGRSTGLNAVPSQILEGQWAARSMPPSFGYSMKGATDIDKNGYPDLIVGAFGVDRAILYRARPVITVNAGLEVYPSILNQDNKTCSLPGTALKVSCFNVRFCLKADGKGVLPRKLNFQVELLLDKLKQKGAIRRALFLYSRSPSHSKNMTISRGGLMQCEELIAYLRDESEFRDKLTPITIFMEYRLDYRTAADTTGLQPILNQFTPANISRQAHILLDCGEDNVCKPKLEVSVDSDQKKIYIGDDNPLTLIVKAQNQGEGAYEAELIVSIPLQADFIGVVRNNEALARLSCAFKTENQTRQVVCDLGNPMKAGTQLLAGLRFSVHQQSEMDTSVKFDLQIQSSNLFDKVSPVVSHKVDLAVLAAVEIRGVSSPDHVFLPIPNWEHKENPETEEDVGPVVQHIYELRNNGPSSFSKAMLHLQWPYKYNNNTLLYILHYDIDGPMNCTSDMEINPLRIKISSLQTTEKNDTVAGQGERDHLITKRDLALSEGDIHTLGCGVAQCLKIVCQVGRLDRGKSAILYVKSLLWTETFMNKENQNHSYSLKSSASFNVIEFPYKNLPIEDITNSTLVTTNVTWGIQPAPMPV
Sequence (P18564 22-707): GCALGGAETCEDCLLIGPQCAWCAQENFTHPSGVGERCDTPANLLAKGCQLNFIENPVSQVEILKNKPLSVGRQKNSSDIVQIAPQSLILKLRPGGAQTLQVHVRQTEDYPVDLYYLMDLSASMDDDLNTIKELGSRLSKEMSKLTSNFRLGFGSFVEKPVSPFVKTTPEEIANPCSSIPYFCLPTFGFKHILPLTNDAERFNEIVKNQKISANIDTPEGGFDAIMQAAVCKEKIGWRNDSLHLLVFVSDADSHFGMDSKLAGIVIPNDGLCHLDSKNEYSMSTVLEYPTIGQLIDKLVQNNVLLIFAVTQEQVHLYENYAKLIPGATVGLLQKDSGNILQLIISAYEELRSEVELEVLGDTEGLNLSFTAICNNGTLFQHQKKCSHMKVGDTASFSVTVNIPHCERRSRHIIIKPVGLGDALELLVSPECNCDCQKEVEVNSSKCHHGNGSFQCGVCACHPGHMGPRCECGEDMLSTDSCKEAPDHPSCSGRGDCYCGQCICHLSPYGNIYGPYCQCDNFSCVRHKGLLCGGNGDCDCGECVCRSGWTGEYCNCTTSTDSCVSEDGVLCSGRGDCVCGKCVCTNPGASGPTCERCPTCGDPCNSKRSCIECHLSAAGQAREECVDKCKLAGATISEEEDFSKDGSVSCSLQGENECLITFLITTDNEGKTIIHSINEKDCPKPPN
test protocol: Solid phase integrin αVβ6 binding assay
condition context: inhibition of recombinant TGFβ1 LAP binding to coated integrin, IC50 presented in four ranges, read-out: αvβ6 Inhibition IC50 (nM) - range
Below is a list of entries, each paired with its recorded IC50 value.

CO[C@H](C)CN(CCCCc1ccc2c(n1)NCCC2)CC[C@H](Nc1nc(C)nc2ccccc12)C(=O)O :: < 50 nM
O=C(O)[C@H](CCN(CCCCc1ccc2c(n1)NCCC2)CCOc1cc(F)cc(F)c1)Nc1ncnc2ccccc12 :: < 50 nM

Check the records and state IC50 for CO[C@H](C)CN(CCCCc1ccc2c(n1)NCCC2)CC[C@H](Nc1ccncn1)C(=O)O < 50 nM
